Values were extracted from patent US8633245B2.

# Tgt: recombinant human PAI-1 (Homo sapiens, UniProt P05121)
# Construct: purchased Molecular Innovations, Inc
# Sequence (P05121 24-402): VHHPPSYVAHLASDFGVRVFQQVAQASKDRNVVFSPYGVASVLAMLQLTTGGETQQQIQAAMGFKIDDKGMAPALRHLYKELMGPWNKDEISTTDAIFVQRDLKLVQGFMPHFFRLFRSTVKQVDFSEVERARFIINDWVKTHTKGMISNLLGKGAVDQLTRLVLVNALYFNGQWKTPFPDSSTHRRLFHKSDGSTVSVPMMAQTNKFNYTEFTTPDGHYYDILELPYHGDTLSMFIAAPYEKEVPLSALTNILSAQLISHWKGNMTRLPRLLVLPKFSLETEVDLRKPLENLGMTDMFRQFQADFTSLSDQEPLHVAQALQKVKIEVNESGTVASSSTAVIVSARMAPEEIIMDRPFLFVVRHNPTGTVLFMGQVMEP
# Assay Details: Test Example 2: human PAI-1 inhibitory activity (tPA fluorogenic substrate, pH 7.4 HEPES buffer)
# Type: biochemical
# Applied Conditions: human PAI-1; calculated from the inhibition rates
# Method: 0.1 M HEPES, 0.1 M NaCl. 1 mM EDTA. 0.1% Polyethylene glycol 8,000 (Hampton Research Corporation), 2 mM Dimethyldecylphoshine oxide [Apo-10] (Fluka Corporation)
Endpoint Name: pIC50
Numbers only, as −log10 of the molar value.

Below: 3 compounds and their reported pIC50.
{"Compound": "CCCCC(Oc1ccc(-c2ccc(OC(F)(F)F)cc2)cc1OCc1ccc(C(C)(C)C)cc1)C(=O)O (stereo not shown) [Compound 310]", "pIC50": 6.15}
{"Compound": "CCCCC(Oc1ccc(-c2cccc(C)c2)cc1Oc1ccc(C(C)(C)C)cc1)C(=O)O (stereo not shown) [Compound 321]", "pIC50": 6.22}
{"Compound": "CC(C)(C)c1ccc(COc2ccc(Oc3ccc(OC(F)(F)F)cc3)cc2CCC(=O)O)cc1 [Compound 96]", "pIC50": 5.88}

Task: # pIC50 lookup, item CCCCC(Oc1cc(Oc2ccc(OC(F)(F)F)cc2)ccc1OCCCCc1ccccc1)C(=O)O (stereo not shown) [Compound 309]
Result: 6.18
